All figures here come from ChEMBL document CHEMBL4414598.

measuredTarget: Adenosine receptor A1 (Homo sapiens, UniProt P30542)
Sequence (P30542 whole entry): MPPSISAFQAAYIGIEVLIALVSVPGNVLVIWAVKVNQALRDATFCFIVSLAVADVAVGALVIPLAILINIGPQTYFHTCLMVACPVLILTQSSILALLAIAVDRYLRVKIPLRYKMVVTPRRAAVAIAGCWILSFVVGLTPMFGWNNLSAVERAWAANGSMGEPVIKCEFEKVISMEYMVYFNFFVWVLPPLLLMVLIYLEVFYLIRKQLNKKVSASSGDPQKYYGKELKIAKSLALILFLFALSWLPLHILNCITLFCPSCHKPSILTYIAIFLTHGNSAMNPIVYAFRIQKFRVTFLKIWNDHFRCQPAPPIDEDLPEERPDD
assayProtocol: Displacement of [3H]DPCPX from human recombinant A1 receptor expressed in CHOA1 cell membranes incubated for 60 mins by radioligand binding competition assay
quantityKind: pKi
Units for pKi: none; it is -log10 of a concentration expressed in mol/L.

Summary for this compound, CC1=C(C(=O)OC(C)C)C(c2ccco2)n2c(nc3ccccc32)N1 (stereo unspecified) : pKi is 7.70
